Each entry below carries its recorded IC50.
Target: Pancreatic triacylglycerol lipase (Sus scrofa, UniProt P00591)
Sequence (P00591 whole entry): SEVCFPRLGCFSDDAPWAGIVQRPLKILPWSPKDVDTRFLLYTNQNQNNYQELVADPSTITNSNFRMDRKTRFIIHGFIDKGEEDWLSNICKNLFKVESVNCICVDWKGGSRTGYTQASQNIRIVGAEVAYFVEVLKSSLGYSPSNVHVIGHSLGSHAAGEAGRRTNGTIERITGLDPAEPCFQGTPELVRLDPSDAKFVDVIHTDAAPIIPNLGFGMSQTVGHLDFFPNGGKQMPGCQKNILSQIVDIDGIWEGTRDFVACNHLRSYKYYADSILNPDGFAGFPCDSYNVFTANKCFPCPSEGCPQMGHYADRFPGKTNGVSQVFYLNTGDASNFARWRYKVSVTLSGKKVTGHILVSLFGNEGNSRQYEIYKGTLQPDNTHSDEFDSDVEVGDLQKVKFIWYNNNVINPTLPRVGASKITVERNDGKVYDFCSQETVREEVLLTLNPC
Write down the numeric answer in µM and omit the unit.

Cc1cnc(NC(=O)C(=O)c2ccc3c(c2)c2ccccc2n3Cc2ccc(Cl)cc2)s1 :: 32.8
CCn1c2ccccc2c2cc(C(=O)C(=O)Nc3cc(OC)c(OC)c(OC)c3)ccc21 :: 11.4
CCn1c2ccccc2c2cc(C(=O)C(=O)Nc3ccc(N(C)C)cc3)ccc21 :: 56.2
COc1ccc(NC(=O)C(=O)c2ccc3[nH]c4ccccc4c3c2)cc1OC :: 44.1

Now look at this one.
Record COc1cccc(NC(=O)C(=O)c2ccc3[nH]c4ccccc4c3c2)c1 , field IC50: 33
